# Test system: DNA Pol I (Klenow fragment, exo-)
# testMethodNotes: steady-state kinetics of single nucleotide insertions, incoming nucleotide analogues (dNTP/dXTP)
# Type: biochemical, E. coli
# experimentalContext: dNTP inserted opposite template base A; 37° C., 10 mM MgCl2, pH 7.5; normalized to lowest enzyme concentration
Reported Vmax is given for each of the following compounds.
Numbers only here, please. The scale is % · min^−1.

Cc1cc(C2CC(O)C(COP(=O)(O)OP(=O)(O)OP(=O)(O)O)O2)c(F)cc1F (stereo not drawn) [dFTP, reference compound] | 2.9
Cc1cn([C@H]2C[C@H](O)[C@@H](COP(=O)(O)OP(=O)(O)OP(=O)(O)O)O2)c(=O)[nH]c1=O [dTTP, reference compound] | 30
Cc1cc(C2CC(O)C(COP(=O)(O)OP(=O)(O)OP(=O)(O)O)O2)c(I)cc1I (stereo not drawn) | 1.8
Cc1cccc(C2CC(O)C(COP(=O)(O)OP(=O)(O)OP(=O)(O)O)O2)c1 (stereo not drawn) | 0.11
Cc1cc(C2CC(O)C(COP(=O)(O)OP(=O)(O)OP(=O)(O)O)O2)c(Cl)cc1Cl (stereo not drawn) | 39

Proceed to the following item.
Vmax recorded for this compound, Cc1cc(C2CC(O)C(COP(=O)(O)OP(=O)(O)OP(=O)(O)O)O2)c(Br)cc1Br (stereo not drawn) , is 13

====

Reported ΔG°37 (fits) is given for each of the following compounds.
# Tested on: self-complementary strands (5′-XCGCGCG)
# testMethodNotes: dangling end thermal denaturation studies (base stacking) with self-complementary strands
# Format: physicochemical
# experimentalContext: dangling residue X in 5′-XCGCGCG; curve fits
Numbers only here, please. The scale is kcal/mol.

Cc1ccc(I)cc1I | -10.2
Cc1ccc(Cl)cc1Cl | -10.1
Cc1c[nH]c(=O)[nH]c1=O [T, thymine, reference compound] | -9.1

Proceed to the following item.
ΔG°37 (fits) recorded for this compound, Cc1ccc(Br)cc1Br , is -10.2

====

# System: self-complementary strands (5′-XCGCGCG)
# testMethodNotes: dangling end thermal denaturation studies (base stacking) with self-complementary strands
# Type: physicochemical
# experimentalContext: dangling residue X in 5′-XCGCGCG
measuredProperty: ΔS° (van't Hoff) (cal/K · mol)
Numbers only here, please. The scale is cal/K · mol.

ΔS° (van't Hoff) recorded for this compound, Cc1ccc(Cl)cc1Cl , is −138

====

# Tested on: DNA Pol I (Klenow fragment, exo-)
# testMethodNotes: steady-state kinetics of single nucleotide insertions, thymidine analogues in the template
# Assay type: biochemical, E. coli
# experimentalContext: insertion of dTTP opposite template base; 37° C.
measuredProperty: Km (µM)
Numbers only here, please. The scale is µM.

Some compounds with known Km results, for comparison:
Cc1ccc(Br)cc1Br | 37
Cc1ccc(Cl)cc1Cl | 18
Cc1c[nH]c(=O)[nH]c1=O [T, thymine, reference compound] | 38

Km recorded for this compound, Cc1ccc(I)cc1I , is 48

====

# Tested on: self-complementary strands (5′-XCGCGCG)
# testMethodNotes: dangling end thermal denaturation studies (base stacking) with self-complementary strands
# Format: physicochemical
# experimentalContext: dangling residue X in 5′-XCGCGCG; versus duplex with no dangling residue
Reported ΔTm is given for each of the following compounds.
Numbers only here, please. The scale is °C.

Some compounds with known ΔTm results, for comparison:
Cc1ccc(I)cc1I [I, 2,4-diiodotoluene] | 15.2
Cc1ccc(Br)cc1Br [B, 2,4-dibromotoluene] | 15.7
Cc1c[nH]c(=O)[nH]c1=O [T, thymine, reference compound] | 7.4

ΔTm recorded for this compound, Cc1ccc(Cl)cc1Cl [L, 2,4-dichlorotoluene] , is 13.7

These data points were gathered from patent US7473683B2.
